Every entry's value here was drawn from ChEMBL document CHEMBL1201862.

Each entry below carries its recorded GI50.
Tested on: ACHN
Assay: NCI tumour cell line growth inhibition, 48 h
Activity calls are given as the source filed them. Cut-off read from the data, not from the text of the source: active = GI50 up to about 1.1 µM and inactive = higher.
measurementType: GI50

compound	assayValue
COc1cc(C2c3cc4c(cc3[C@@H](Nc3ccc(N)cc3)C3COC(=O)[C@H]23)OCO4)cc(OC)c1O (stereo partly specified)	1.25 µM (inactive)
Cc1nn(C(=O)c2ccccc2O)c2c1C(c1ccc3ccccc3c1O)SC(=N)N2 (stereo unspecified)	3.8 µM (inactive)
CC(C)Sc1nncc(/C(N)=N/O)n1	> 100 µM (inactive)
O=[N+]([O-])c1ccc2c(c1)c1nn2CCCCOc2nn(c3ccc([N+](=O)[O-])cc23)CCCCO1	> 100 µM (inactive)
C/C(=C/CC[C@](C)(OC1OC(CO)C(O)C(O)C1O)[C@H]1CC[C@]2(C)[C@@H]1CC[C@@H]1[C@@]3(C)CC[C@H](O)C(C)(C)[C@@H]3C[C@H](O)[C@]12CO)CO (stereo partly specified)	> 100 µM (inactive)
COc1ccccc1C(=O)N(C)c1ccc(Cl)c(C(=O)OC(C)C)c1	84.9 µM (inactive)
